Values from patent US20030236218A1

Assay: Octanol/water partition coefficient, shake flask method
Assay type: physicochemical
Details: 4 hours at room temperature, read-out: Oct/Water (log P)
Protocol: HPLC purification was achieved using a reverse-phase Lichrospher column (250×4 mm, Hewlett-Packard, RP-18, Cat. #79925) and an isocratic flow (1 ml/minute) consisting of water (70%) and acetonitrile (30%). Melting points were determined using a Melt John's apparatus and are uncorrected. […] The octanol/water partition coefficient was determined by the shake flask method. […] The two phases were carefully separated and filtered through a Millipore filter and analyzed by HPLC. […]
Exercise: state measured logP at 4 h for each of the molecules provided.
Please reply with the value in numeric form only.

[Q] Given COC(=O)C(C)NP(=O)(OC[C@@H]1C=C[C@H](n2cc(C)c(=O)[nH]c2=O)O1)Oc1ccc(Br)cc1 (some centres unmarked) , state its recorded logP at 4 h.
[A] 1.21

[Q] // repeat for COC(=O)C(C)NP(=O)(OCC1C=CC(n2cc(C)c(=O)[nH]c2=O)O1)Oc1ccc(Cl)cc1 (centres unmarked) and report
[A] 0.64

====

Experiment: Pharmacokinetic studies in mice, intravenous administration
Assay type: in vivo, Balb/c mice
Details: female, Balb/c, mouse, in vivo, iv, 100 mg/kg, plasma analyte = label; after i.v. 100 mg/kg compound 113; mean ± S.E.M; read-out: AUC (converted)
endpoint: AUC (µM·h)
Please reply with the bare figure in µM·h and do not write the unit itself.

[Q] Look up AUC for this molecule: Cc1cn([C@H]2C=C[C@@H](CO)O2)c(=O)[nH]c1=O [d4T, 2′, 3′-Didehydro-3′-deoxy thymidine, reference compound]
[A] 47.6

[Q] Next: COC(=O)C(C)NP(=O)(OC[C@@H]1C=C[C@H](n2cc(C)c(=O)[nH]c2=O)O1)Oc1ccc(Br)cc1 (some centres unmarked)
[A] 17.9

====

Assay: Pharmacokinetic studies in mice, intravenous administration
Assay type: in vivo, Balb/c mice
Conditions: female, Balb/c, mouse, in vivo, iv, 40 mg/kg, after i.v. 40 mg/kg d4T; mean ± S.E.M; read-out: Vss
endpoint: Vd (L/kg)
Record the value in L/kg, omitting the unit from your answer.

[Q] Bench note: what Vd did Cc1cn([C@H]2C=C[C@@H](CO)O2)c(=O)[nH]c1=O [d4T, 2′, 3′-Didehydro-3′-deoxy thymidine, reference compound] show?
[A] 0.582

====

Assay: Pharmacokinetic studies in mice, intravenous administration
Format: in vivo, Balb/c mice
Conditions: plasma analyte = label; after i.v. 100 mg/kg compound 113; estimate from composite curve of pooled data
endpoint: Cmax (µM)
Reply numerically in µM, unit not repeated.

[Q] Query (compound): Cc1cn([C@H]2C=C[C@@H](COP(=O)(O)NC(C)C(=O)O)O2)c(=O)[nH]c1=O (stereo partly shown) [Ala-d4T-MP, alaninyl-d4T-monophosphate] ; field requested: Cmax
[A] 67.4

====

Assay: Pharmacokinetic studies in mice, intravenous administration
Assay type: in vivo, Balb/c mice
Settings: female, Balb/c, mouse, in vivo, iv, 100 mg/kg, plasma analyte = label; after i.v. 100 mg/kg compound 113; estimate from composite curve of pooled data; read-out: AUC (converted)
endpoint: AUC (µM·h)
Reply with just the number (in µM·h).

[Q] // returns reported AUC for input Cc1cn([C@H]2C=C[C@@H](CO)O2)c(=O)[nH]c1=O [d4T, 2′, 3′-Didehydro-3′-deoxy thymidine, reference compound]
[A] 48.6

[Q] Let us now turn to COC(=O)C(C)NP(=O)(OC[C@@H]1C=C[C@H](n2cc(C)c(=O)[nH]c2=O)O1)Oc1ccc(Br)cc1 (some centres unmarked)
[A] 19
